Tested on: KM12 colon
Experiment: NCI tumour cell line growth inhibition, 48 h; in the data active = GI50 below about 0.43 µM; inactive = the rest
Your answer must be one of the following: yes (1) = active, no (0) = inactive

{"Compound": "CCOc1ccc(N(C)c2ccc(/C=C/C3=[N+](C)c4ccccc4C3(C)C)cc2)cc1", "Class": "yes (1)"}
{"Compound": "O=C(CCCc1ccc(N(CCCl)CCCl)cc1)NCc1ccccc1", "Class": "no (0)"}
{"Compound": "CN(C)CCC(N)(P(=O)([O-])[O-])P(=O)([O-])[O-].N.N.[Pt+2]", "Class": "no (0)"}

Status in this test for "O=C(N/N=C/c1ccc(Cl)cc1)c1ccc(NC(=O)c2ccccn2)cc1" ?
no (0)

Status in this test for "CCOC(=O)c1noc2c1CCc1c-2cn(Cc2ccc(OC)cc2)c1-c1cc(OC)c(OC)c(OC)c1" ?
no (0)

Status in this test for "COc1cc2cc(NCc3cccc(Cl)c3)nc(C)c2cc1OC" ?
no (0)

Status in this test for "O=[N+]([O-])c1ccc(C2=NCCO2)cc1" ?
no (0)

Status in this test for N#CC1=C(N)Oc2c(sc3c(Br)cccc23)C1c1ccc([N+](=O)[O-])cc1 (stereo not given) ?
yes (1)

Status in this test for "CN1CCN(Cc2ccc(NC(=O)c3cncc(C#Cc4cnc(N)c5ncccc45)c3)cc2C(F)(F)F)CC1" ?
yes (1)

Status in this test for "CN(C)CCNC(=O)c1cc2c3cc(Cl)ccc3[nH]c2c2ncccc12" ?
no (0)

Status in this test for "CNC(=O)Oc1cc(C(C)C)ccc1Sc1ccc(C(C)C)cc1OC(=O)NC" ?
no (0)
